Test system: RAW264.7
assay_remarks: Cytotoxicity against mouse RAW264.7 cells at 100 uM
Assay type: cell-based
cond: raw264.7, 100 µM
readout: Activity

[[record]]
compound = "CC1=CC=CC2=NCC(C(=O)c3ccc(-c4ccc(Br)cc4)cc3)CN12.[O-][Cl+3]([O-])([O-])O (stereo not drawn)"
readout = "Activity"
observed_measurement = "Non-toxic"

[[record]]
compound = "COc1ccc(-c2ccc(C(=O)C3CN=C4C=C(C)C=CN4C3)cc2)cc1.Cl (stereo not drawn)"
readout = "Activity"
observed_measurement = "Non-toxic"

[[record]]
compound = "CC1=CC2=NCC(C(=O)c3ccc4cc(C)ccc4c3)CN2C(C)=C1.[O-][Cl+3]([O-])([O-])O (stereo not drawn)"
readout = "Activity"
observed_measurement = "Non-toxic"

